- system: Bcr–Abl1 kinase (Homo sapiens, UniProt P00519)
- Construct: purchased Promega
- Sequence (P00519 whole entry): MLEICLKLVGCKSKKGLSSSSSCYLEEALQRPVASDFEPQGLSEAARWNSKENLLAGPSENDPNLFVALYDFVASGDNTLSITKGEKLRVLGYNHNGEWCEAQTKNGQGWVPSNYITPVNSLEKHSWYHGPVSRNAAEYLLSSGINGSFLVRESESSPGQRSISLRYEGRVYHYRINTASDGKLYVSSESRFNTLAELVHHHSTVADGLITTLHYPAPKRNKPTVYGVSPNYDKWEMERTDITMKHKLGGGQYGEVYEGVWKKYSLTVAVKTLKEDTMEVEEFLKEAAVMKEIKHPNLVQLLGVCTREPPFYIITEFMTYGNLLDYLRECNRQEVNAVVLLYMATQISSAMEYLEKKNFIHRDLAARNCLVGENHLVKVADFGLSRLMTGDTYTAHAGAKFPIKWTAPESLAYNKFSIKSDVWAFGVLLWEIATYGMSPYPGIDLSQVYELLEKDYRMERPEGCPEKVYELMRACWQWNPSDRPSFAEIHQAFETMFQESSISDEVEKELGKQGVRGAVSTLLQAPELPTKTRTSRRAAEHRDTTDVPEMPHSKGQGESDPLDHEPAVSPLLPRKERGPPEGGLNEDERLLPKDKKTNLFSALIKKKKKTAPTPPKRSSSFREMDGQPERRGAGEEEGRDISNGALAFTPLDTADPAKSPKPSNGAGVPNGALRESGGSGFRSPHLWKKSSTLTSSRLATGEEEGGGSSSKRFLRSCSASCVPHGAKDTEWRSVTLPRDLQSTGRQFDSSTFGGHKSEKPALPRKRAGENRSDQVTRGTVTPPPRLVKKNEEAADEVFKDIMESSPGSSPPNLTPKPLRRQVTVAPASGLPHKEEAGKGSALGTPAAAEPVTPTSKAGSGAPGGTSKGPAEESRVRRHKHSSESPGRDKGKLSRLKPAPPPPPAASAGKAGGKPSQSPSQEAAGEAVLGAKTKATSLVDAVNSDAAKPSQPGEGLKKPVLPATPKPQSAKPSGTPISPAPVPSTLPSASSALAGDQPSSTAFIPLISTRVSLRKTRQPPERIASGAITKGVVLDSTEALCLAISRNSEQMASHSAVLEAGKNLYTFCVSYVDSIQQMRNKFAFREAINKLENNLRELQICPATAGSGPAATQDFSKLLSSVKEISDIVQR
- protocol.summary: Abl1 Kinase Enzyme System / ADP-Glo kinase assay
- Format: biochemical
- conditions.used: 0.5 µM compound, ATP 50 μM
recorded.endpoint: inhibition at 0.5 µM (%)
Give your result in % as a bare value.

Note to self: inhibition at 0.5 µM recorded for Nc1nc(Cl)nc2c1ncn2Cc1ccc(C(=O)Nc2cccc(C(F)(F)F)c2)cc1 [Compound 15] was 17

Entry Nc1ncnc2c1ncn2Cc1ccc(C(=O)Nc2cccc(C(F)(F)F)c2)cc1 [Compound 9] ; inhibition at 0.5 µM = 39

Record COc1nc(Cl)nc2c1ncn2Cc1ccc(C(=O)Nc2cccc(C(F)(F)F)c2)cc1 [Compound 13] . Reported inhibition at 0.5 µM: 24

Notebook: Cc1cn(-c2cc(NC(=O)c3ccc(Cn4cnc5c(N)nc(F)nc54)cc3)cc(C(F)(F)F)c2)cn1 [Compound 11] , inhibition at 0.5 µM read as 37

* * *

- system: InsR (Homo sapiens)
- Construct: purchased Promega
- Sequence (P06213 28-1382): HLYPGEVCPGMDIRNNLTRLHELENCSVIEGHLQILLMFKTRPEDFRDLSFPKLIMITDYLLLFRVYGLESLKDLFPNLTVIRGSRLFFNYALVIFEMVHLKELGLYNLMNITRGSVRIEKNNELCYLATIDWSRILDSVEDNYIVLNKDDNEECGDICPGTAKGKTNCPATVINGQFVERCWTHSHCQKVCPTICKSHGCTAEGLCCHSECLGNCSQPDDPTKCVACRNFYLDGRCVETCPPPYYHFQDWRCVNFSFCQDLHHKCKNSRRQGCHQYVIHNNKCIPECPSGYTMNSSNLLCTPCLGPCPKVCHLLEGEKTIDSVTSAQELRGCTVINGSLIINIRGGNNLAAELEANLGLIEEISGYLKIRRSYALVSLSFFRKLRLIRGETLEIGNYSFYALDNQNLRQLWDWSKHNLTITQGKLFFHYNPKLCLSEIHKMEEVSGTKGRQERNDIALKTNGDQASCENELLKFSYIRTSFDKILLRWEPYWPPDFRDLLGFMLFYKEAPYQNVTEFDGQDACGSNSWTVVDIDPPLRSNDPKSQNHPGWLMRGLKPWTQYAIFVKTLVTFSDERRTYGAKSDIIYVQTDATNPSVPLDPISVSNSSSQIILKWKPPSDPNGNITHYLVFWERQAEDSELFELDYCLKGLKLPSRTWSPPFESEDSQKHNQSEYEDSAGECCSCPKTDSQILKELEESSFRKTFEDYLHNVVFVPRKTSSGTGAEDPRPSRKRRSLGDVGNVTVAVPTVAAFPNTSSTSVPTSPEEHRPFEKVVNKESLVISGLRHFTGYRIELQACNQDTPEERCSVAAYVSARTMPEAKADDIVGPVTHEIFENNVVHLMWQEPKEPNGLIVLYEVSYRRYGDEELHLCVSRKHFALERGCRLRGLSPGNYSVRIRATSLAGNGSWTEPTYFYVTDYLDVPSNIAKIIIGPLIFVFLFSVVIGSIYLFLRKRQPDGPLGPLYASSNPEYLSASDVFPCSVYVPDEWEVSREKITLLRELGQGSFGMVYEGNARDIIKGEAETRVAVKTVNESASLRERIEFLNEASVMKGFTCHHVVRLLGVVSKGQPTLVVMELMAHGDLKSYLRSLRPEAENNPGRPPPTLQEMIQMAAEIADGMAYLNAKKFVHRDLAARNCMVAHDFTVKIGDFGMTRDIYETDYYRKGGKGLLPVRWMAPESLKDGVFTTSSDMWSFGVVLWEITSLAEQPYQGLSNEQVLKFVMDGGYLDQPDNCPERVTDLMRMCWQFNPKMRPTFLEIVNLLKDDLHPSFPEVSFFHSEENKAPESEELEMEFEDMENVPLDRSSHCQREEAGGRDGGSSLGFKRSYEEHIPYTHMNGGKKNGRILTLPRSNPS
- protocol.summary: Kinase Selectivity Profiling System TK-1 / ADP-Glo, InsR
- Type: biochemical
Please provide measured inhibition at 1 µM for the entries that follow.
A number alone suffices; assume %.

So for COc1nc(Cl)nc2c1ncn2Cc1ccc(C(=O)Nc2cccc(C(F)(F)F)c2)cc1 [Compound 13] , the logged inhibition at 1 µM turned out to be 0

Input Cc1cn(-c2cc(NC(=O)c3ccc(Cn4cnc5c(N)nc(F)nc54)cc3)cc(C(F)(F)F)c2)cn1 [Compound 11] . Output inhibition at 1 µM: 0

Looking up Nc1nc(F)nc2c1ncn2Cc1ccc(C(=O)Nc2cccc(C(F)(F)F)c2)cc1 [Compound 8] , I found its inhibition at 1 µM recorded as 0

Lab note: measured inhibition at 1 µM of Cc1cn(-c2cc(NC(=O)c3ccc(Cn4cnc5c(N)ncnc54)cc3)cc(C(F)(F)F)c2)cn1 [Compound 12] was 0

Recorded inhibition at 1 µM (compound O=C(Nc1cccc(C(F)(F)F)c1)c1ccc(Cn2cnc3c(Cl)nc(Cl)nc32)cc1 [Compound 7] ): 6

Record summary for Cc1cn(-c2cc(NC(=O)c3ccc(Cn4cnc5c(N)nc(Cl)nc54)cc3)cc(C(F)(F)F)c2)cn1 [Compound 16] : reported inhibition at 1 µM = 0

The measured inhibition at 1 µM associated with Nc1ncnc2c1ncn2Cc1ccc(C(=O)Nc2cccc(C(F)(F)F)c2)cc1 [Compound 9] reads 0

Kindly note the recorded inhibition at 1 µM for CS(=O)(=O)CCNCc1ccc(-c2ccc3ncnc(Nc4ccc(OCc5cccc(F)c5)c(Cl)c4)c3c2)o1 [Lapatinib, lapatinib, reference compound] , which is 0

Entry COc1nc(Cl)nc2c1ncn2Cc1ccc(C(=O)Nc2cc(-n3cnc(C)c3)cc(C(F)(F)F)c2)cc1 [Compound 14] — recorded inhibition at 1 µM = 17

Field inhibition at 1 µM (entry Cc1cn(-c2cc(NC(=O)c3ccc(Cn4cnc5c(Cl)nc(Cl)nc54)cc3)cc(C(F)(F)F)c2)cn1 [Compound 10] ) reads 0

Value of inhibition at 1 µM reported for the compound Nc1nc(Cl)nc2c1ncn2Cc1ccc(C(=O)Nc2cccc(C(F)(F)F)c2)cc1 [Compound 15] is 0

* * *

Exercise: state measured inhibition at 0.5 µM for each of the compounds provided.
- system: Bcr–Abl1 kinase (Homo sapiens, UniProt P00519)
- Construct: purchased Promega
- protocol.summary: Abl1 Kinase Enzyme System / ADP-Glo kinase assay
- Assay type: biochemical
- conditions.used: 0.5 µM compound, ATP 50 μM
- Description: At the end, 10 μL of kinase detection reagent was added into the well and incubated for 30 min to produce a luminescence signal.
Numeric answer only, unit % assumed.

The measured inhibition at 0.5 µM associated with "COc1nc(Cl)nc2c1ncn2Cc1ccc(C(=O)Nc2cc(-n3cnc(C)c3)cc(C(F)(F)F)c2)cc1" reads 18

Entry under test: "Cc1cn(-c2cc(NC(=O)c3ccc(Cn4cnc5c(N)ncnc54)cc3)cc(C(F)(F)F)c2)cn1" . Its inhibition at 0.5 µM was 38

Lab book: inhibition at 0.5 µM of "O=C(Nc1cccc(C(F)(F)F)c1)c1ccc(Cn2cnc3c(Cl)nc(Cl)nc32)cc1" noted as 24

Sample "Cc1cn(-c2cc(NC(=O)c3ccc(Cn4cnc5c(N)nc(Cl)nc54)cc3)cc(C(F)(F)F)c2)cn1" ; inhibition at 0.5 µM observed: 15

What the record says about "Nc1nc(F)nc2c1ncn2Cc1ccc(C(=O)Nc2cccc(C(F)(F)F)c2)cc1" : inhibition at 0.5 µM is 23

get_value(item= "Cc1cn(-c2cc(NC(=O)c3ccc(Cn4cnc5c(Cl)nc(Cl)nc54)cc3)cc(C(F)(F)F)c2)cn1" , readout=inhibition at 0.5 µM) returns 36

Cited source: paper PMC8657793
